Target: LXRβ (Homo sapiens)
Sequence (P55055 1-460): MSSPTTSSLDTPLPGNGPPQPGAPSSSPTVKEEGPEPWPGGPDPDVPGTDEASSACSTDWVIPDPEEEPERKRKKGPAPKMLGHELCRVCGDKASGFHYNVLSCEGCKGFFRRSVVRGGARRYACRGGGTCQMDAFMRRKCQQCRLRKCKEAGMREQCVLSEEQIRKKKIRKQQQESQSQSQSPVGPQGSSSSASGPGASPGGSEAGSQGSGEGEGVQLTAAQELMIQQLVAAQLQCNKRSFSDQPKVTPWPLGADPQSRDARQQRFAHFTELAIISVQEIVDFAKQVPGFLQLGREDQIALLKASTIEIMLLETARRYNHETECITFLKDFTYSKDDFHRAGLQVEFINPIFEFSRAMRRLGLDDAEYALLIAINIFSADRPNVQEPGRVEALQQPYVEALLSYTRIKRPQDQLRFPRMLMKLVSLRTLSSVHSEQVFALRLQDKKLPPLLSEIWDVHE
Assay: LXRE-driven luciferase cotransfection assay in HEK293 cells
measured_parameter: IC50 (nM)
Give bare numbers, in nM.

Ask | State the recorded IC50 for this entry: Cc1cc(C)c(S(=O)(=O)N(Cc2ccc(-c3cccc(S(C)(=O)=O)c3)cc2)Cc2ccc(C(F)(F)F)o2)c(C)c1
Reply | 9

###

target: LXRα (Homo sapiens, UniProt Q13133); assay: Luminex coregulator peptide recruitment with LXRα LBD at […]
Sequence (Q13133 209-447 limits assumed): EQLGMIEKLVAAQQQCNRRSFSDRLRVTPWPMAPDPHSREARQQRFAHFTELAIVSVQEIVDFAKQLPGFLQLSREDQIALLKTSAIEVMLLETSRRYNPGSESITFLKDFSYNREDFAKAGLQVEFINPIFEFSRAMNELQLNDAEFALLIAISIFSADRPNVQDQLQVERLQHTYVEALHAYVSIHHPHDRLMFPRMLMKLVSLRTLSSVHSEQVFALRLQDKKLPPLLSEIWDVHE
measured_parameter: pIC50
Give bare numbers, as −log10 of the molar value.

Ask | State the recorded pIC50 for this entry: Cc1cc(C)c(S(=O)(=O)N(Cc2ccc(-c3cccc(S(C)(=O)=O)c3)cc2)Cc2ccc(C(F)(F)F)o2)c(C)c1
Reply | 7.77

Data credit: paper PMC5087326
